Field: FDI. Provide a value for each of the compounds that follow.
test system: Euproctis fraterna; experiment: Antifeedant activity against moulted fifth larval stage of Euproctis fraterna infested castor leaves assessed as feeding deterrence index at 0.2 ppm by leaf disk assay relative to control; assay type: functional
Expressed in %, but write only the number.

Input line: Given the compound C=C1C(=O)O[C@@H]2C/C(C)=C\C(=O)C[C@@H](C)[C@@H](OC(=O)/C(C)=C\C)[C@H](O)[C@@H]12 [VICOLIDE B] , what is its reported FDI?
Output line: 12.17

Input line: Name the recorded FDI for C=C1C(=O)O[C@@H]2C/C(C)=C\C(=O)C[C@@H](C)[C@@H](OC(=O)[C@]3(C)O[C@@H]3C)[C@H](O)[C@@H]12 [VICOLIDE D] .
Output line: 10.99

Input line: // lookup FDI for C=C1C(=O)O[C@H]2[C@H]1[C@@H](OC(=O)[C@@H](C)CC)[C@H](OC(C)=O)[C@H](C)C[C@@H](O)[C@H]1O[C@@]1(C)[C@@H]2O [VICOLIDE C]
Output line: 13.98

Input line: I'd like to know its FDI. The compound in question is C=C1C(=O)O[C@H]2[C@H]1[C@@H](O)[C@H](OC(=O)/C(C)=C\C)[C@H](C)[C@@H]1C(=O)C=C(C)[C@H]21 [VICOLIDE A]
Output line: 8.43

====

test system: Olepa ricini; test: Antifeedant activity against moulted fifth larval stage of Olepa ricini infested on castor leaves assessed as feeding deterrence index at 200 ppm by leaf disk assay relative to control; format: functional
ASSAY_METRIC: FDI (%)
Output spec: scalar in %, unitless text.

Input line: # query: FDI of entry C=C1C(=O)O[C@@H]2C/C(C)=C\C(=O)C[C@@H](C)[C@@H](OC(=O)/C(C)=C\C)[C@H](O)[C@@H]12 [VICOLIDE B]
Output line: 40.93

Input line: Fill in: FDI of C=C1C(=O)O[C@H]2[C@H]1[C@@H](OC(=O)[C@@H](C)CC)[C@H](OC(C)=O)[C@H](C)C[C@@H](O)[C@H]1O[C@@]1(C)[C@@H]2O [VICOLIDE C] is ___
Output line: 30.59

Input line: Bench note: what FDI did C=C1C(=O)O[C@H]2[C@H]1[C@@H](O)[C@H](OC(=O)/C(C)=C\C)[C@H](C)[C@@H]1C(=O)C=C(C)[C@H]21 [VICOLIDE A] show?
Output line: 29.66

Input line: Looking for the measured FDI of C=C1C(=O)O[C@@H]2C/C(C)=C\C(=O)C[C@@H](C)[C@@H](OC(=O)[C@]3(C)O[C@@H]3C)[C@H](O)[C@@H]12 [VICOLIDE D] , can you help?
Output line: 40.93

====

test system: Euproctis fraterna; assay: Antifeedant activity against moulted fifth larval stage of Euproctis fraterna infested castor leaves assessed as feeding deterrence index at 200 ppm by leaf disk assay relative to control; type: functional
I'd appreciate it if you could supply FDI values for the items below.
Answers without a unit are incomplete; give the number and then its unit.

Input line: What does the record list as FDI for C=C1C(=O)O[C@@H]2C/C(C)=C\C(=O)C[C@@H](C)[C@@H](OC(=O)[C@]3(C)O[C@@H]3C)[C@H](O)[C@@H]12 [VICOLIDE D] ?
Output line: 20.46%

Input line: Given the entry C=C1C(=O)O[C@H]2[C@H]1[C@@H](OC(=O)[C@@H](C)CC)[C@H](OC(C)=O)[C@H](C)C[C@@H](O)[C@H]1O[C@@]1(C)[C@@H]2O [VICOLIDE C] , report its measured FDI.
Output line: 26.76%

Input line: Need FDI, item C=C1C(=O)O[C@H]2[C@H]1[C@@H](O)[C@H](OC(=O)/C(C)=C\C)[C@H](C)[C@@H]1C(=O)C=C(C)[C@H]21 [VICOLIDE A]
Output line: 15.33%

Input line: What measured FDI goes with C=C1C(=O)O[C@@H]2C/C(C)=C\C(=O)C[C@@H](C)[C@@H](OC(=O)/C(C)=C\C)[C@H](O)[C@@H]12 [VICOLIDE B] ?
Output line: 22.54%

Origin of measurements: ChEMBL document CHEMBL3045614
